System: Bacillus megarerium
Assay: MIC, doubling dilution in 96-well microtitre plate
Format: cell-based
REPORTED PROPERTY: MIC

Example compounds with recorded MIC:
CC(C)(C)c1ccc(C=NN=C(N)c2cc[n+]([O-])cc2)cc1 [Compound 4PYOfb] ... 16 to 32 µg/mL
NC(=NN=Cc1ccc([N+](=O)[O-])o1)c1cc[n+]([O-])cc1 (mixture of isomers) [Compound 4PYOfi] ... 8 to 16 µg/mL
CC(C)(C)c1cc(C=NN=C(N)c2cc[n+]([O-])cc2)c(O)c(C(C)(C)C)c1 [Compound 4PYOcq] ... 32 to 64 µg/mL
CC(=O)Nc1ccc(C=NN=C(N)c2cc[n+]([O-])cc2)cc1 [Compound 4PYOfa] ... 16 to 32 µg/mL

From here, focus on the item given below.
Task: Answer with the recorded MIC for the compound listed here: NC(=NN=Cc1cccc2ccccc12)c1cc[n+]([O-])cc1 [Compound 4PYOal]
Output: 16 to 32 µg/mL
